# system: FGFR2 V564F (Homo sapiens, UniProt P21802, V564F)
# Construct: purchased Signalchem F05-12FG
# Sequence (P21802 22-821 V564F): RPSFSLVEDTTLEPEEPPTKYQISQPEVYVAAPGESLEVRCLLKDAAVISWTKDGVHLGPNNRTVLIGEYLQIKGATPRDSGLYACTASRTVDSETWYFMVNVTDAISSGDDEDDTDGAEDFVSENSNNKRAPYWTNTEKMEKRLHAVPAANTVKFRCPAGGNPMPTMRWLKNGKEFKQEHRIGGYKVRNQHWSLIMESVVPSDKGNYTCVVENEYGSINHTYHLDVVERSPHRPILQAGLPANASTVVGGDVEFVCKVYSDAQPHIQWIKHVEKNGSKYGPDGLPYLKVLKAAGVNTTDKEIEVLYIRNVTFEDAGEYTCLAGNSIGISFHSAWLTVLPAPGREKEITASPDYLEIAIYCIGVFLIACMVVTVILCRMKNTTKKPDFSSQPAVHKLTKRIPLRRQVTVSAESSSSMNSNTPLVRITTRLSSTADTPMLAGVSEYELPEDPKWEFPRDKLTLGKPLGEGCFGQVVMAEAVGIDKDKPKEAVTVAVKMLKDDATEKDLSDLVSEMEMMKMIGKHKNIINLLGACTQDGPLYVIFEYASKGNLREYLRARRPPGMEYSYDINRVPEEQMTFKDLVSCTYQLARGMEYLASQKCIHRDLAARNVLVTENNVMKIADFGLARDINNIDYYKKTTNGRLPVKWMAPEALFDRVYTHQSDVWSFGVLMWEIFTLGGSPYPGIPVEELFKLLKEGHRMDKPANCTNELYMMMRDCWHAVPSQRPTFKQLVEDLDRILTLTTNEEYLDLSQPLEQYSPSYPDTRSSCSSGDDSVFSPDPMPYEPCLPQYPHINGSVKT
# test-description: Assay I: inhibitory activity against FGFR mutants (HTRF KinEASE-TK)
# Format: biochemical
# condition-context: Table 1; ATP working concentration 10 μM, substrate TK 1 μM
# reported IC50; entries follow

{"compound": "CC(Oc1ccc2[nH]nc(C(=O)Nc3cnn(CCC4(O)CC4)c3)c2c1)c1c(Cl)cncc1Cl (stereo not shown)", "system": "FGFR2 V564F (Homo sapiens, UniProt P21802, V564F)", "IC50": "0.84 nM"}
{"compound": "CC(Oc1ccc2[nH]nc(C(=O)Nc3ccc(N4C[C@@H](C)N[C@@H](C)C4)cc3)c2c1)c1c(Cl)cncc1Cl (stereo partly shown)", "system": "FGFR2 V564F (Homo sapiens, UniProt P21802, V564F)", "IC50": "2.3 nM"}
{"compound": "CC(Oc1ccc2[nH]nc(C(=O)Nc3cnn(CCC#N)c3)c2c1)c1c(Cl)cncc1Cl (stereo not shown)", "system": "FGFR2 V564F (Homo sapiens, UniProt P21802, V564F)", "IC50": "1.1 nM"}
{"compound": "CC(Oc1ccc2[nH]nc(C(=O)Nc3ccc(N4CC[C@@H](O)C4)cc3)c2c1)c1c(Cl)cncc1Cl (stereo partly shown)", "system": "FGFR2 V564F (Homo sapiens, UniProt P21802, V564F)", "IC50": "22.1 nM"}
